// data source = ChEMBL document CHEMBL1123671

I'd be grateful if you could share measured ED50 for these entries.
Tested on: Mus musculus
Assay: Potentiation of 5-hydroxytryptophan-induced head twitch in mice after oral administration
Assay type: functional

The reported ED50 of the compound CCN(CC)C(=O)[C@]1(c2ccc(Cl)cc2)CC1CN.Cl (some centres not stated) was > 100 mg/kg

The reported ED50 of the compound CNCCCN1c2ccccc2CCc2ccccc21 was > 100 mg/kg

The reported ED50 of the compound CCN(CC)C(=O)[C@]1(c2cccc(Cl)c2)CC1CN.Cl (some centres not stated) was > 10 mg/kg

The reported ED50 of the compound CCNC(=O)[C@@]1(c2ccccc2)CC1CN.O=C(O)C(=O)O (some centres not stated) was > 100 mg/kg

The reported ED50 of the compound CCOC(=O)[C@@]1(c2ccc(Cl)cc2)CC1CN(C)C.Cl (some centres not stated) was 35 mg/kg

The reported ED50 of the compound CC(C)OC(=O)[C@@]1(c2ccc(Cl)cc2)CC1CN.Cl (some centres not stated) was 50 mg/kg

The reported ED50 of the compound CC(C)N(C(=O)[C@@]1(c2ccccc2)CC1CN)C(C)C.Cl (some centres not stated) was > 30 mg/kg

The reported ED50 of the compound CC(C)OC(=O)[C@@]1(c2ccccc2)CC1CN.Cl (some centres not stated) was 54 mg/kg

The reported ED50 of the compound CCN(CC)C(=O)[C@]1(c2ccccc2)C[C@H]1CN.Cl was > 100 mg/kg

The reported ED50 of the compound CCN(CC)C(=O)[C@]1(c2ccc(F)cc2)CC1CN.Cl (some centres not stated) was 50 mg/kg

The reported ED50 of the compound CCCCN(CCCC)C(=O)[C@@]1(c2ccccc2)CC1CN.O=C(O)C(=O)O (some centres not stated) was > 100 mg/kg

The reported ED50 of the compound NCC1C[C@@]1(C(=O)N1CCCC1)c1ccccc1.O=C(O)C(=O)O (some centres not stated) was > 100 mg/kg
